Record form. Attribute: pKd. Fill in for each entry.
- System Under Test: T1, soluble human CD3 epsilon chain (human, UniProt P07766 23-126)
- T1 construct: also called CD3ε
- T1 sequence (P07766 23-126 limits assumed): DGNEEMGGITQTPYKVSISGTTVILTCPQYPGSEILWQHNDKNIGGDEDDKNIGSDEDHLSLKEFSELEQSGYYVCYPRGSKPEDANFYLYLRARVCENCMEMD
- Method Notes: SPR
One number for each entry, as −log10 of the molar value.

TR01H081-E22Hh/none-Hi-Kn010G3/L0011-k0 (antibody, V domains shown, one-arm) VH: QVQLVESGGGLVQPGRSLRLSCAASGFTFSNAWMHWVRQAPGKGLEWVAQIKDKSQNYATYYAESVKGRFTISRADSKNSIYLQMNSLKTEDTAVYYCRYVHYAAGYGVDIWGQGTTVTVSS VL: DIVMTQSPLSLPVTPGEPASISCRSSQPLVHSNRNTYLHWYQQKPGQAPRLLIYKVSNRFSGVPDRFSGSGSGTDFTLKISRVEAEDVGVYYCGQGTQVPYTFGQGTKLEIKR | 7.87

In the following, a different binder is considered.
stdin: # return recorded pKd for input TR01H067-E22Hh/none-Hi-Kn010G3/L0203-k0 (antibody, V domains shown, one-arm) VH: QVQLVESGGGLVQPGRSLRLSCAASGFTFSNAWMHWVRQAPGKGLEWVAQIKDKSQNYATYYAESVKGRFTISRDDSKNSLYLQMNSLKTEDTAVYYCRYVHYAASYGVDAWGQGTTVTVSS VL: DIVMTQSPLSLPVTPGEPASISCRSSQSPVHSNRNTYIHWYQQKPGQAPRLLIYKVSNRFSGVPDRFSGSGSGTDFTLKISRVEAEDVGVYYCGQGTQVPYTFGQGTKLEIKR
stdout: 7.32
